Item-by-item account of IC50
test system: L. infantum axenic amastigotes; test: In vitro leishmanicidal activity (MTT) in axenic amastigote forms; assay type: cell-based, Leishmania infantum; settings: Leishmania infantum; axenic amastigotes, 24 h treatment, MTT
// return numeric value only (unit: µM, not printed)

molecule="Cc1ccc(C(=O)/C=C/c2ccc(OCC(=O)NC3CCCCC3)cc2)cc1 [Compound 4a]" quantityname=IC50 reading=19.7

For this molecule ( COc1ccc(C(=O)/C=C/c2ccc(OCC(=O)NC3CCCCC3)cc2)cc1 [Compound 4b] ), measured IC50 is 3.4

For this molecule ( C[C@@H]1[C@H](O)[C@@H](C)/C=C/C=C/C=C/C=C/C=C/C=C/C=C/[C@H](O[C@@H]2O[C@H](C)[C@@H](O)[C@H](N)[C@@H]2O)C[C@@H]2O[C@](O)(C[C@@H](O)C[C@@H](O)[C@H](O)CC[C@@H](O)C[C@@H](O)CC(=O)O[C@H]1C)C[C@H](O)[C@H]2C(=O)O [AmB, Amphotericin B, reference compound] ), measured IC50 is 0.89
